# experimentalTarget: recombinant BRD4 (BD1 + BD2) (Homo sapiens, UniProt O60885)
# Construct: employing a recombinant BRD4 (BD1 + BD2) and its corresponding ligand
# methodSummary: BRD4 TR-FRET activity assay
# Assay type: binding
# testSettings: 1 μmol/L; read-out: BRD4 inhibition rate
propertyMeasured: inhibition at 1 µM

INSERT INTO results (molecularstring, experimentaltarget, value) VALUES
  ('Cc1noc(C)c1-c1cc(Cc2n[nH]c(=O)c3ccccc23)cc(NS(=O)(=O)c2ccc(F)cc2)c1', 'recombinant BRD4 (BD1 + BD2) (Homo sapiens, UniProt O60885)', '7%'),
  ('COc1cccc(S(=O)(=O)Nc2cc(Cc3n[nH]c(=O)c4ccccc34)cc(-c3c(C)noc3C)c2)c1', 'recombinant BRD4 (BD1 + BD2) (Homo sapiens, UniProt O60885)', '59%'),
  ('Cc1cccc(CNc2cc(Cc3n[nH]c(=O)c4ccccc34)cc(-c3c(C)noc3C)c2)c1', 'recombinant BRD4 (BD1 + BD2) (Homo sapiens, UniProt O60885)', '3%'),
  ('Cc1noc(C)c1-c1cc(Cc2n[nH]c(=O)c3ccccc23)cc(C(=O)N2CCC(O)CC2)c1', 'recombinant BRD4 (BD1 + BD2) (Homo sapiens, UniProt O60885)', '19%'),
  ('Cc1noc(C)c1-c1cc(Cc2n[nH]c(=O)c3ccccc23)cc(NCc2cccc(N)c2)c1', 'recombinant BRD4 (BD1 + BD2) (Homo sapiens, UniProt O60885)', '72%'),
  ('Cc1noc(C)c1-c1cc(Cc2n[nH]c(=O)c3ccccc23)cc(C(=O)NC2CCOCC2)c1', 'recombinant BRD4 (BD1 + BD2) (Homo sapiens, UniProt O60885)', '11%'),
  ('Cc1noc(C)c1-c1cc(Cc2n[nH]c(=O)c3ccccc23)cc(NS(=O)(=O)c2cccc(Br)c2)c1', 'recombinant BRD4 (BD1 + BD2) (Homo sapiens, UniProt O60885)', '4%'),
  ('CCc1ccc(S(=O)(=O)Nc2cc(Cc3n[nH]c(=O)c4ccccc34)cc(-c3c(C)noc3C)c2)cc1', 'recombinant BRD4 (BD1 + BD2) (Homo sapiens, UniProt O60885)', '67%');

---

# experimentalTarget: recombinant BRD4 (BD1 + BD2) (Homo sapiens, UniProt O60885)
# Construct: employing a recombinant BRD4 (BD1 + BD2) and its corresponding ligand
# methodSummary: BRD4 TR-FRET activity assay
# Type: binding
# testSettings: 1 μmol/L; read-out: BRD4 inhibition rate
propertyMeasured: inhibition at 1 µM (%)

INSERT INTO assay_data (molecularstring, value) VALUES
  ('Cc1noc(C)c1-c1cc(Cc2n[nH]c(=O)c3ccccc23)cc(NS(=O)(=O)c2ccc(C(F)(F)F)cc2)c1', 24),
  ('Cc1noc(C)c1-c1cc(Cc2n[nH]c(=O)c3ccccc23)cc(NS(=O)(=O)c2ccc(Cl)cc2)c1', 72),
  ('Cc1noc(C)c1-c1cc(Cc2n[nH]c(=O)c3ccccc23)cc(C(=O)N2CCC[C@@H](O)C2)c1', 4),
  ('CC(=O)Nc1ccc(CNc2cc(Cc3n[nH]c(=O)c4ccccc34)cc(-c3c(C)noc3C)c2)cc1', 96),
  ('Cc1noc(C)c1-c1cc(Cc2n[nH]c(=O)c3ccccc23)cc(NS(=O)(=O)c2ccccc2Cl)c1', 72),
  ('CC(=O)Nc1cccc(CNc2cc(Cc3n[nH]c(=O)c4ccccc34)cc(-c3c(C)noc3C)c2)c1', 78),
  ('Cc1noc(C)c1-c1cc(Cc2n[nH]c(=O)c3ccccc23)cc(NCc2cccc(Br)c2)c1', 3),
  ('COc1ccccc1S(=O)(=O)Nc1cc(Cc2n[nH]c(=O)c3ccccc23)cc(-c2c(C)noc2C)c1', 24);

---

# experimentalTarget: recombinant BRD4 (BD1 + BD2) (Homo sapiens)
# Construct: employing a recombinant BRD4 (BD1 + BD2) and its corresponding ligand
# methodSummary: BRD4 TR-FRET activity assay;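 further: signal rises with BET ligand binding to the bromodomains, so inhibitors lower it, 120 min incubation at room temperature, 1% DMSO, wells lacking ligand as negative control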
# Assay type: binding
# testSettings: 1 μmol/L; read-out: BRD4 inhibition rate
Entries and their measured inhibition at 1 µM follow.
propertyMeasured: inhibition at 1 µM (%)

INSERT INTO assay_data (molecule, value) VALUES
  ('Cc1ccccc1C(=O)Nc1cc(Cc2n[nH]c(=O)c3ccccc23)cc(-c2c(C)noc2C)c1 [DDT23]', 97),
  ('Cc1noc(C)c1-c1cc(Cc2n[nH]c(=O)c3ccccc23)cc(C(=O)N2CCC[C@H](O)C2)c1 [DDT19]', 11),
  ('Cc1noc(C)c1-c1cc(Cc2n[nH]c(=O)c3ccccc23)cc(C(=O)N[C@H]2CC[C@H](O)CC2)c1 [DDT10]', 36),
  ('Cc1ccc(S(=O)(=O)Nc2cc(Cc3n[nH]c(=O)c4ccccc34)cc(-c3c(C)noc3C)c2)cc1 [DDT59]', 75),
  ('Cc1ccc(CNc2cc(Cc3n[nH]c(=O)c4ccccc34)cc(-c3c(C)noc3C)c2)cc1 [DDT45]', 7),
  ('Cc1noc(C)c1-c1cc(Cc2n[nH]c(=O)c3ccccc23)cc(C(=O)NC2CCCCC2)c1 [DDT04]', 56),
  ('Cc1noc(C)c1-c1cc(Cc2n[nH]c(=O)c3ccccc23)cc(C(=O)N2CCC(=O)C2)c1 [DDT12]', 38),
  ('Cc1noc(C)c1-c1cc(Cc2n[nH]c(=O)c3ccccc23)cc(NS(=O)(=O)C(C)C)c1 [DDT54]', 3),
  ('Cc1noc(C)c1-c1cc(Cc2n[nH]c(=O)c3ccccc23)cc(NS(=O)(=O)c2ccc(Cl)cc2Cl)c1 [DDT90]', 4),
  ('Cc1noc(C)c1-c1cc(Cc2n[nH]c(=O)c3ccccc23)cc(NC(=O)c2cccc(N)c2)c1 [DDT31]', 71),
  ('COCCS(=O)(=O)Nc1cc(Cc2n[nH]c(=O)c3ccccc23)cc(-c2c(C)noc2C)c1 [DDT53]', 9),
  ('Cc1noc(C)c1-c1cc(Cc2n[nH]c(=O)c3ccccc23)cc(NCc2ccc(Br)cc2F)c1 [DDT42]', 3),
  ('Cc1noc(C)c1-c1cc(Cc2n[nH]c(=O)c3ccccc23)cc(NC(=O)c2ccc(C(F)(F)F)cc2)c1 [DDT28]', 54),
  ('Cc1noc(C)c1-c1cc(Cc2n[nH]c(=O)c3ccccc23)cc(C(N)=O)c1 [DDT01]', 15),
  ('Cc1noc(C)c1-c1cc(Cc2n[nH]c(=O)c3ccccc23)cc(NS(=O)(=O)c2ccc([N+](=O)[O-])cc2)c1 [DDT83]', 28),
  ('Cc1noc(C)c1-c1cc(Cc2n[nH]c(=O)c3ccccc23)cc(C(=O)N2CCN(C(=O)C3CC3)CC2)c1 [DDT17]', 16),
  ('Cc1noc(C)c1-c1cc(Cc2n[nH]c(=O)c3ccccc23)cc(NCc2ccccc2)c1 [DDT33]', 3),
  ('Cc1noc(C)c1-c1cc(Cc2n[nH]c(=O)c3ccccc23)cc(NCc2cccc(Cl)c2)c1 [DDT38]', 8),
  ('Cc1ccc(S(=O)(=O)Nc2cc(Cc3n[nH]c(=O)c4ccccc34)cc(-c3c(C)noc3C)c2)cc1C [DDT61]', 49),
  ('Cc1noc(C)c1-c1cc(Cc2n[nH]c(=O)c3ccccc23)cc(NC(=O)c2ccccc2C(F)(F)F)c1 [DDT26]', 85),
  ('Cc1noc(C)c1-c1cc(Cc2n[nH]c(=O)c3ccccc23)cc(C(=O)Nc2ccccc2)c1 [DDT05]', 35),
  ('Cc1noc(C)c1-c1cc(Cc2n[nH]c(=O)c3ccccc23)cc(NS(=O)(=O)c2ccccc2F)c1 [DDT84]', 14),
  ('CC(=O)Nc1cccc(S(=O)(=O)Nc2cc(Cc3n[nH]c(=O)c4ccccc34)cc(-c3c(C)noc3C)c2)c1 [DDT72]', 4),
  ('Cc1cccc(S(=O)(=O)Nc2cc(Cc3n[nH]c(=O)c4ccccc34)cc(-c3c(C)noc3C)c2)c1 [DDT58]', 71),
  ('Cc1noc(C)c1-c1cc(Cc2n[nH]c(=O)c3ccccc23)cc(C(=O)N[C@H]2CC[C@@H](O)CC2)c1 [DDT11]', 54),
  ('Cc1noc(C)c1-c1cc(Cc2n[nH]c(=O)c3ccccc23)cc(NS(=O)(=O)C2CC2)c1 [DDT55]', 32),
  ('Cc1noc(C)c1-c1cc(Cc2n[nH]c(=O)c3ccccc23)cc(NCc2ccc(Br)cc2)c1 [DDT41]', 17),
  ('Cc1cc(C)cc(S(=O)(=O)Nc2cc(Cc3n[nH]c(=O)c4ccccc34)cc(-c3c(C)noc3C)c2)c1 [DDT60]', 28),
  ('Cc1noc(C)c1-c1cc(Cc2n[nH]c(=O)c3ccccc23)cc(NCc2cccc(F)c2)c1 [DDT34]', 3),
  ('Cc1noc(C)c1-c1cc(Cc2n[nH]c(=O)c3ccccc23)cc(NC(=O)c2cccc([N+](=O)[O-])c2)c1 [DDT29]', 65),
  ('Cc1noc(C)c1-c1cc(Cc2n[nH]c(=O)c3ccccc23)cc(NC(=O)c2cccc(C(F)(F)F)c2)c1 [DDT27]', 60);

# credit: paper PMC10720709
